pIC50 values for the compounds below.
- Target Or System: human TLR8 (Homo sapiens, UniProt Q9NR97)
- Sequence (Q9NR97 27-1041): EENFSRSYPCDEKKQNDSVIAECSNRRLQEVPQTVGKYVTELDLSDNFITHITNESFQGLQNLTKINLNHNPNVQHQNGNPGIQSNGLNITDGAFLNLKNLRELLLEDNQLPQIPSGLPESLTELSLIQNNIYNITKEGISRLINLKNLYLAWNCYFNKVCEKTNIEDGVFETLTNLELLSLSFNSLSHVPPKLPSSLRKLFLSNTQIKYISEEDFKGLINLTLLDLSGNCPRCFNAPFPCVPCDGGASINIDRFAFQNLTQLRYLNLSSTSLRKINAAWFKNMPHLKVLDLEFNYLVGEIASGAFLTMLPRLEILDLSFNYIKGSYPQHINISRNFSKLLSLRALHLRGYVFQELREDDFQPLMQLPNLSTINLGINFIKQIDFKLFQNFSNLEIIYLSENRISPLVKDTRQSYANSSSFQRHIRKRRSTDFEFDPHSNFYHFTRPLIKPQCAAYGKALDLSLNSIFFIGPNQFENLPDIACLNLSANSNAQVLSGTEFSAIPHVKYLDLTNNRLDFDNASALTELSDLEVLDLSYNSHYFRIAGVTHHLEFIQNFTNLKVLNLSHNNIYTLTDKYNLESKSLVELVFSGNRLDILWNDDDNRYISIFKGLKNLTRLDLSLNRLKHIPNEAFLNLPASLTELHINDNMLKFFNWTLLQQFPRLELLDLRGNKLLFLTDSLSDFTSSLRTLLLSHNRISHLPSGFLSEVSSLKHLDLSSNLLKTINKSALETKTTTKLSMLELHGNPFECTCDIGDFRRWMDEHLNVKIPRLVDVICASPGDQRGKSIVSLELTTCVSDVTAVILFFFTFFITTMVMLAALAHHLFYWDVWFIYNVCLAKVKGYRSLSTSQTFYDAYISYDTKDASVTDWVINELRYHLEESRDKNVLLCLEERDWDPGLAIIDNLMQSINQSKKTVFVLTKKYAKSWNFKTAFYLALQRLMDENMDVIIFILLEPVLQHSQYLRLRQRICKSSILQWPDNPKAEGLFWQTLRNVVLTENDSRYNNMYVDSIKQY
- Run Description: TLR8 inhibition reporter assay (HEK-Blue, SEAP)
- Test Context: HEK-Blue cells overexpressing human TLR8, ligand R848 14.25 μM, 22 hour incubation
pIC50: −log10 of the molar value.

Below: 4 compounds and their reported pIC50.
{"Smiles Text": "COc1ccc(-c2nc3ncc(-c4ccc(N5CCN(C(C)C)CC5)cc4)cc3n2C2CC2)cc1OC", "pIC50": 5.47}
{"Smiles Text": "CC(C)CN1CCC(N2CCC(c3cnc4nc(-c5ccc(S(C)(=O)=O)cc5)n(C)c4c3)CC2)CC1", "pIC50": "< 4.60"}
{"Smiles Text": "Cc1cc(C2CCN(C3CCN(C4CCOCC4)CC3)CC2)nc2c1nc(-c1ccc(S(C)(=O)=O)cc1)n2C", "pIC50": "< 4.30"}
{"Smiles Text": "Cc1cc(C2CCN(C3CCN(C(C)C)CC3)CC2)nc2c1nc(-c1ccc(S(C)(=O)=O)cc1)n2C", "pIC50": "< 4.30"}

# input What value of measured pIC50 is listed for Cc1cc(-c2ccc(N3CCN(C(C)C)CC3)cc2)nc2c1nc(-c1ccc(S(C)(=O)=O)cc1)n2C ?
# output < 4.30

---

# reported IC50; entries follow
- Target Or System: human TLR7 (Homo sapiens, UniProt Q9NYK1)
- Run Description: TLR7 inhibition reporter assay (HEK-Blue, SEAP)
- Test Context: HEK-Blue cells overexpressing human TLR7, ligand gardiquimod 2.5 μM, 22 hour incubation
Number only, in µM; omit the unit.

Use these answered entries as a reference point.
{"Molecule": "CC(C)N1CC2(CCN(c3ccc(-c4ccc5nc(-c6ccc(S(C)(=O)=O)cc6)n(C)c5n4)cc3)CC2)C1", "IC50 / µM": 16}
{"Molecule": "COc1ccc(-c2nc3c(C)cc(C4CCN([C@H]5C[C@@H]6CN(CC7CC7)C[C@@H]6C5)CC4)nc3n2C)cc1OC", "IC50 / µM": 0.74}

// below: IC50 requested for another molecule
# input Endpoint output: IC50 of Cc1cc(C2CCN(C3CC4CCC(C3)N4CC3CC3)CC2)nc2c1nc(-c1ccc(S(C)(=O)=O)cc1)n2C (single isomer, unassigned) [Example 31] . Value?
# output 7.2

---

A collection of compounds and their measured IC50
- Target Or System: human TLR7 (Homo sapiens, UniProt Q9NYK1)
- Run Description: TLR7 inhibition reporter assay (HEK-Blue, SEAP)
- Test Context: HEK-Blue cells overexpressing human TLR7, ligand gardiquimod 2.5 μM, 22 hour incubation
Note: unit µM is implicit; provide only the numeric part.

Below, each entry is followed by its recorded IC50 result.
{"Compound": "Cc1cc(-c2ccc(N3CCN(C(C)C)CC3)cc2)nc2c1nc(-c1ccc(S(C)(=O)=O)cc1)n2C", "IC50, µM": 29}
{"Compound": "COc1ccc(-c2nc3c(C)cc(C4CCN([C@H]5C[C@@H]6CN(C7CCC7)C[C@@H]6C5)CC4)nc3n2C)cc1OC", "IC50, µM": 0.31}
{"Compound": "CC(C)CN1CCC(N2CCC(c3cnc4nc(-c5ccc(S(C)(=O)=O)cc5)n(C)c4c3)CC2)CC1", "IC50, µM": 6.4}
{"Compound": "Cc1cc(-c2ccc(CN3CCC(N4CCCC4)CC3)cc2)nc2c1nc(-c1ccc(S(C)(=O)=O)cc1)n2C1CC1", "IC50, µM": 7.2}

# input Need IC50, item Cc1cc(C2CCN(C3CC4CCC(C3)N4C(C)C)CC2)nc2c1nc(-c1ccc(S(C)(=O)=O)cc1)n2C (single isomer, unassigned) [Example 27]
# output 3.7

# input Field request: IC50 | item: COc1cc(-c2nc3c(C)cc(C4CCN([C@H]5C[C@@H]6CN(C7CCOCC7)C[C@@H]6C5)CC4)nc3n2C)cn2ncnc12
# output 4.5

# input What measured IC50 goes with Cc1cc(-c2ccc(CN3CC4(C3)CN(C3CCOCC3)C4)cc2)nc2c1nc(-c1ccc(S(C)(=O)=O)cc1)n2C1CC1 ?
# output 0.2

---

- Target Or System: human TLR7 (Homo sapiens)
- Sequence (Q9NYK1 27-1049): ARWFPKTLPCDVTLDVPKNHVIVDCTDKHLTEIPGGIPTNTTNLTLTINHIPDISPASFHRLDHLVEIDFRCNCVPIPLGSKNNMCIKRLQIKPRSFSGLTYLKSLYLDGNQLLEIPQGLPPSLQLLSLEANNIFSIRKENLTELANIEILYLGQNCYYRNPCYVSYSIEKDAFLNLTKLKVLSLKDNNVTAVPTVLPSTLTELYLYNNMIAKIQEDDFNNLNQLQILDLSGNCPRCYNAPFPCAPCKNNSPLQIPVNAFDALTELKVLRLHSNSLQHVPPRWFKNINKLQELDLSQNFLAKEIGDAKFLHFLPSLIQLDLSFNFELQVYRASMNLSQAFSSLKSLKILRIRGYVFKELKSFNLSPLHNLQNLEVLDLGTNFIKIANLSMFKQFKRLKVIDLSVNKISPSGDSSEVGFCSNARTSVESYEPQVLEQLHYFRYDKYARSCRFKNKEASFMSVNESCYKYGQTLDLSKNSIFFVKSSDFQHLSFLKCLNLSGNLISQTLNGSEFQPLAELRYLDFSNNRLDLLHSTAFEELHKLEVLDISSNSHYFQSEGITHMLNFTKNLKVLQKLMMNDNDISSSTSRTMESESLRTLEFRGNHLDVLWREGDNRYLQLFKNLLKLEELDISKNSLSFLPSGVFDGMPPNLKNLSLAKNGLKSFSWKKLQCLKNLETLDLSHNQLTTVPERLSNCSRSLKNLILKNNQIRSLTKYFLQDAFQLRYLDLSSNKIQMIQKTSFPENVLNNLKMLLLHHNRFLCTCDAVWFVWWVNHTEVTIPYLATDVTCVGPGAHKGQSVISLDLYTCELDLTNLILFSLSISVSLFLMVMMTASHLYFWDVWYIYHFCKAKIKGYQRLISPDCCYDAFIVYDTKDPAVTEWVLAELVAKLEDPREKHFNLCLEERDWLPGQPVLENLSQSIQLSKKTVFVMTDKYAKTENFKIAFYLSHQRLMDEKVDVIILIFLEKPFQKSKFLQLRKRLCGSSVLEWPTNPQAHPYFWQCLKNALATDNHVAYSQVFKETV
- Run Description: TLR7 inhibition reporter assay (HEK-Blue, SEAP)
- Test Context: HEK-Blue cells overexpressing human TLR7, ligand gardiquimod 2.5 μM, 22 hour incubation
Readout: log10(IC50) (log10 of the value in µM)
// stored as log10 of IC50 expressed in µM

Consider the worked cases shown below.
{"Compound": "COc1ccc(-c2nc3c(C)cc(C4CCN([C@H]5C[C@@H]6CN(CC(C)C)C[C@@H]6C5)CC4)nc3n2C)cc1OC", "log10(IC50)": 0.08}
{"Compound": "COc1ccc(-c2nc3ncc(-c4ccc(N5CCN(C(C)C)CC5)cc4)cc3n2C)cc1OC", "log10(IC50)": 0.18}
{"Compound": "COc1ccc(-c2nc3c(C)cc(-c4ccc(N5CC6(C5)CN(C(C)C)C6)cc4)nc3n2C)cc1OC", "log10(IC50)": 0.04}
{"Compound": "Cc1cc(C2CCN(C3CC4CCC(C3)N4CC3CC3)CC2)nc2c1nc(-c1ccc(S(C)(=O)=O)cc1)n2C (single isomer, unassigned) [Example 30]", "log10(IC50)": 0.46}
{"Compound": "Cc1cc(C2CCN(C3CCN(C4CCOCC4)CC3)CC2)nc2c1nc(-c1ccc(S(C)(=O)=O)cc1)n2C", "log10(IC50)": 0.61}

Continue with the compound presented below.
# input // query log10(IC50) value for entry COCCN1C[C@H]2C[C@H](N3CCC(c4cc(C)c5nc(-c6cc(OC)c7ncnn7c6)n(C)c5n4)CC3)C[C@H]2C1
# output -0.44

---

Catalogue of molecules with associated IC50
- Target Or System: human TLR7 (Homo sapiens)
- Run Description: TLR7 inhibition reporter assay (HEK-Blue, SEAP)
- Test Context: HEK-Blue cells overexpressing human TLR7, ligand gardiquimod 2.5 μM, 22 hour incubation
A number alone suffices; assume nM.

Solved entries:
{"Molecule": "Cc1cc(-c2ccc(CN3CC4(C3)CN(CC(C)C)C4)cc2)nc2c1nc(-c1ccc(S(C)(=O)=O)cc1)n2C1CC1", "IC50 (nM)": 2600}
{"Molecule": "Cc1cc(C2CCN(C3CCN(CC(C)(C)O)CC3)CC2)nc2c1nc(-c1ccc(S(C)(=O)=O)cc1)n2C", "IC50 (nM)": 1300}
{"Molecule": "Cc1cc(C2CCN(C3CC4CCC(C3)N4C3CCOCC3)CC2)nc2c1nc(-c1ccc(S(C)(=O)=O)cc1)n2C (single isomer, unassigned) [Example 35]", "IC50 (nM)": 7400}

Okay, next one:
# input Field: IC50 (human TLR7 (Homo sapiens)). Entry: Cc1cc(-c2ccc(CN3CC4(C3)CN(C(C)C)C4)cc2)nc2c1nc(-c1ccc(S(C)(=O)=O)cc1)n2C1CC1
# output 710
